# PROTOCOL TEXT: Oral bioavailability in Sprague-Dawley rat at 10 mg/kg measured at 0.083 to 24 hrs by LC-MS/MS analysis
# Assay type: ADME, organism-based
# CONDITION PARAMETERS: in vivo, po, 10 mg/kg, time 0.083-24 hrs
RESULT TYPE: F (%)

COCCCOc1cc2c(cc1C1CC1)-c1cc(=O)c(C(=O)O)cn1[C@H](C(C)C)CO2 13

P: CCc1cc2c(cc1OCCCOC)OC[C@@H](C(C)C)n1cc(C(=O)O)c(=O)cc1-2
Q: COCCCOc1cc2c(cc1Cl)-c1cc(=O)c(C(=O)O)cn1[C@H](C(C)C)CO2
# argmax over F for candidates P and Q Answer format: the label of the selected item. P
